biological target: Lethal factor (Bacillus anthracis, UniProt P15917)
assay_metric: pIC50
One number for each entry, as −log10 of the molar value.

Known pIC50 results, listed for orientation:
1) O=S(=O)(Nc1sccc1-c1nc2ccccc2s1)c1ccc(S(=O)(=O)N2CCOCC2)cc1: 4.77
2) Cc1ccc(S(=O)(=O)Nc2scc(C)c2-c2nc3ccccc3s2)cc1[N+](=O)[O-]: 4.32

[Q] Need pIC50 of "COc1ccc(-c2cccc(S(=O)(=O)Nc3sccc3-c3nc4ccccc4s3)c2)cc1" , thanks.
[A] 4.85

---

Molecular target: Lethal factor (Bacillus anthracis)
Sequence (P15917 whole entry): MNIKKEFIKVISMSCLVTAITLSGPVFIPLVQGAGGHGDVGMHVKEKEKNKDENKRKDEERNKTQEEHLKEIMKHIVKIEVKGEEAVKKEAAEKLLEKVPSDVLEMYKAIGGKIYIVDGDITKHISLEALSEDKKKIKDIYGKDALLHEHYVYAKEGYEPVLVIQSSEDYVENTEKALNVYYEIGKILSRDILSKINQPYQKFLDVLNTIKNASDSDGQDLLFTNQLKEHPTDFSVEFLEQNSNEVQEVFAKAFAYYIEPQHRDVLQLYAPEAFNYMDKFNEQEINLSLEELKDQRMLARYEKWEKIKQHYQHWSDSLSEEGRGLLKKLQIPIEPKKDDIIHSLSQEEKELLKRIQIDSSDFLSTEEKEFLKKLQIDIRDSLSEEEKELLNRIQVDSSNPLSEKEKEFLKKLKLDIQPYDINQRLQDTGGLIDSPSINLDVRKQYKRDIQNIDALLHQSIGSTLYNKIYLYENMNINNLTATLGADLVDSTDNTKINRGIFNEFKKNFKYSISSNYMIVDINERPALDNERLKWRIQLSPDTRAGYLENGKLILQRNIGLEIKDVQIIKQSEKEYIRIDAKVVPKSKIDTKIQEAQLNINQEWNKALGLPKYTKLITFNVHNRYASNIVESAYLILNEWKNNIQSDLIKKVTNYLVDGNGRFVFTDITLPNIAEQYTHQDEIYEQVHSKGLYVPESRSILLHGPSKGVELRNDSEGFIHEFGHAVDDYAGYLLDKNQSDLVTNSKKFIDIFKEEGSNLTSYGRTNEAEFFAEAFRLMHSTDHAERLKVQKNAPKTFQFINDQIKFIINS
assay_metric: IC50

Known IC50 results, listed for orientation:
1) Cc1csc(N(S(=O)(=O)c2ccc(OC(F)(F)F)cc2)S(=O)(=O)c2ccc(OC(F)(F)F)cc2)c1-c1nc2ccccc2s1: > 100 µM
2) Cc1csc(NS(=O)(=O)c2ccc(Cl)c(Cl)c2)c1-c1nc2ccccc2s1: > 100 µM

[Q] Need IC50 of "O=S(=O)(Nc1sccc1-c1nc2ccccc2s1)c1ccco1" , thanks.
[A] > 50 µM

---

Hi there, I'd appreciate the recorded IC50 for every entry that follows.
Biological target: Lethal factor (Bacillus anthracis, UniProt P15917)
Sequence (P15917 whole entry): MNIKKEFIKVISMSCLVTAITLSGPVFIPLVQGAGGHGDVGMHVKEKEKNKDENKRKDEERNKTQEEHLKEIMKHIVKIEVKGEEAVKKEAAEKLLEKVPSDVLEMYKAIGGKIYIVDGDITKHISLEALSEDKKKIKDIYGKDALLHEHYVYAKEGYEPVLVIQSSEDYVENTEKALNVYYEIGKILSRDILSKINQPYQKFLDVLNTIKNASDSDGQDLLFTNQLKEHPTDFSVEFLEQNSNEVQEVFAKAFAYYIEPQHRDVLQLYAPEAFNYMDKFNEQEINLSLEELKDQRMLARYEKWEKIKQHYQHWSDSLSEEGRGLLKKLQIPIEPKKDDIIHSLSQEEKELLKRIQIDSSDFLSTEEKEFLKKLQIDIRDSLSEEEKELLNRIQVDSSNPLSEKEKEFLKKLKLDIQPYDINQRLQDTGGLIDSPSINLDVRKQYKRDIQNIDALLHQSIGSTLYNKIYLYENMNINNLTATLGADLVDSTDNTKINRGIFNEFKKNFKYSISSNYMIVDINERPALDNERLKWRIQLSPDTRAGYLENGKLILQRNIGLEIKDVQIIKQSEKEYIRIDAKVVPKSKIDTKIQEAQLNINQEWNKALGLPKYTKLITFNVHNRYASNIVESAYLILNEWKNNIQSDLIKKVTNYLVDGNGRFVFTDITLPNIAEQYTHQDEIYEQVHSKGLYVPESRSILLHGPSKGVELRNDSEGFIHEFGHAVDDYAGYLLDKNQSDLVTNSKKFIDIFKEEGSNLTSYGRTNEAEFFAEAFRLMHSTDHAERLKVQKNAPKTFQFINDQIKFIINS

Go through the items and report each one's IC50.
1. Cc1csc(NS(=O)(=O)c2ccc(F)c(Cl)c2)c1-c1nc2ccccc2s1
2. Cc1ccc(S(=O)(=O)Nc2cccs2)cc1Cl
3. COc1ccc(-c2ccc(S(=O)(=O)Nc3ccccc3-c3nc4ccccc4s3)cc2)cc1

[A]
1. > 100 µM
2. > 50 µM
3. > 100 µM

Go through the items and report each one's IC50.
1. COc1ccc(-c2ccc(S(=O)(=O)Nc3nc4ccccc4s3)cc2)cc1
2. Cc1csc(N)c1-c1nc2ccccc2s1

[A]
["> 50 µM", "> 100 µM"]

Go through the items and report each one's IC50.
1. Cc1csc(N(S(=O)(=O)c2ccc(F)cc2)S(=O)(=O)c2ccc(F)cc2)c1-c1nc2ccccc2s1
2. COc1ccc(-c2ccc(S(=O)(=O)Nc3oncc3-c3nc4ccccc4s3)cc2)cc1

[A]
> 100 µM
> 100 µM

---

Hi there, I'd appreciate the recorded pIC50 for every entry that follows.
Target: Lethal factor (Bacillus anthracis)
Sequence (P15917 whole entry): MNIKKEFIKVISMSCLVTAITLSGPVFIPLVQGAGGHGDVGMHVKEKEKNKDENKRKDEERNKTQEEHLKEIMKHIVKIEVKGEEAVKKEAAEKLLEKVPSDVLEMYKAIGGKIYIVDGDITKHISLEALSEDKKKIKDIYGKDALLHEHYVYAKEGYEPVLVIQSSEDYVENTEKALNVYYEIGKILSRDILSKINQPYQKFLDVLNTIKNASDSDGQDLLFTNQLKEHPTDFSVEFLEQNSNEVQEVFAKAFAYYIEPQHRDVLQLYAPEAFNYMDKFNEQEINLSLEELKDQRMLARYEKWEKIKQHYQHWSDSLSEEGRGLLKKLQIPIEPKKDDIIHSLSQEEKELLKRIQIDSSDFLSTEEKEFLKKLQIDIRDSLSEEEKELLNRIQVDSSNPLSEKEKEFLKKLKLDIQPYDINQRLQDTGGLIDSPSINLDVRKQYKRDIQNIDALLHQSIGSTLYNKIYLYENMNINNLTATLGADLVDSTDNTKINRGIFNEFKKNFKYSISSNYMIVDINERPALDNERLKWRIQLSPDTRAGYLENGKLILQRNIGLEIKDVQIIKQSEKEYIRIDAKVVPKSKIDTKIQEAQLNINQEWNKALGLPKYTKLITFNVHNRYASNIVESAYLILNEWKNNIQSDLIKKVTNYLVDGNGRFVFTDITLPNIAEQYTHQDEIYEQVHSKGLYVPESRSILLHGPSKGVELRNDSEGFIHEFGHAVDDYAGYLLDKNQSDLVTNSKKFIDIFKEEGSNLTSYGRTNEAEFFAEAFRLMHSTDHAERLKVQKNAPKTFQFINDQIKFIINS
pIC50: −log10 of the molar value.

Known pIC50 results, listed for orientation:
1) Nc1sccc1-c1nc2ccccc2s1: < 4.00
2) O=S(=O)(Nc1oncc1-c1nc2ccccc2s1)c1ccc(-c2ccc(Cl)cc2)cc1: < 4.00
3) O=S(=O)(NCCc1nc2ccccc2s1)c1ccc(-c2ccc(Cl)cc2)cc1: < 4.30
4) Cc1csc(NS(=O)(=O)c2ccccc2C(F)(F)F)c1-c1nc2ccccc2s1: < 4.00
5) Cc1c(S(=O)(=O)Nc2sccc2-c2nc3ccccc3s2)cnn1-c1ccccc1: < 4.30

Here's the next entry for you.
[Q] Need pIC50 of "O=S(=O)(Nc1nc2ccccc2s1)c1ccc(-c2ccc(Cl)cc2)cc1" , thanks.
[A] < 4.30

---

Molecular target: Lethal factor (Bacillus anthracis)
Sequence (P15917 whole entry): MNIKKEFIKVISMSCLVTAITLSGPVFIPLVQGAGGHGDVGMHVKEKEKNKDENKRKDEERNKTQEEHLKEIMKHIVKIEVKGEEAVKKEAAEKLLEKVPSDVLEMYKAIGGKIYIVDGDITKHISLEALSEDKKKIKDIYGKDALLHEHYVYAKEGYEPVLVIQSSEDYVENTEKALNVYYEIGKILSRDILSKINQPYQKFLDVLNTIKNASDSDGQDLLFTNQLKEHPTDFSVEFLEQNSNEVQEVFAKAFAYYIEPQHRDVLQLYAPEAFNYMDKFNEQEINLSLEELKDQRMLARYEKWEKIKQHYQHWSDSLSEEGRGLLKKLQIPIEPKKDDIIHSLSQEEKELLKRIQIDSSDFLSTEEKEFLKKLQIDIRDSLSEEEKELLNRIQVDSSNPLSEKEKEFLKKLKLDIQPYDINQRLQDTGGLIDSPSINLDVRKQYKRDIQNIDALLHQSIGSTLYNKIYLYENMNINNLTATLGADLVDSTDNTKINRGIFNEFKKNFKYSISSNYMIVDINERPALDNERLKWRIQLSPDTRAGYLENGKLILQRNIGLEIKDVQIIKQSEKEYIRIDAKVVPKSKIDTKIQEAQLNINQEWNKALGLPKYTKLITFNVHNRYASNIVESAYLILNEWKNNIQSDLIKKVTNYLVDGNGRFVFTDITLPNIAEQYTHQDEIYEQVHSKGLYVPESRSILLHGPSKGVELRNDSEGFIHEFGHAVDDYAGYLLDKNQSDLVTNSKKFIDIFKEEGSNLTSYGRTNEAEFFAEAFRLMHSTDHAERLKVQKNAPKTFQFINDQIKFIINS
Hi there, I'd appreciate the recorded IC50 for every entry that follows.

Known IC50 results, listed for orientation:
1) Cc1csc(NS(=O)(=O)c2ccc(C(C)(C)C)cc2)c1-c1nc2ccccc2s1: > 100 µM
2) O=S(=O)(Nc1cccs1)c1ccc(-c2ccc(Cl)cc2)cc1: > 50 µM

Go through the items and report each one's IC50.
1. Cc1c(Cl)cccc1S(=O)(=O)Nc1sccc1-c1nc2ccccc2s1
2. Cc1ccc(NS(=O)(=O)c2cccs2)cc1C(F)(F)F

[A]
> 50 µM
> 100 µM

Recorded values, source ChEMBL document CHEMBL1151859.
